# Species on record: Rattus norvegicus
# runDescription: Open TG-GATES - Regimen: Daily Repeat
# Format: toxicity, organism-based, Sprague-Dawley
# Design: regimen Daily Repeat, gender Male, age 6 weeks
# runParameters: in vivo, po, 0 mg/kg, 72 h, tissue Blood, route gavage, dose level Control, time 3 day
# maps each entry to its MCH
Field format: number, assumed pg, no unit text.

# annotated cases, reported MCH shown
COc1ccc(O)c(C(C)(C)C)c1.COc1ccc(O)cc1C(C)(C)C [BUTYLATED HYDROXYANISOLE]    20.9
Cn1c(=O)c2c(ncn2C)n(C)c1=O [CAFFEINE]    21.1
Cc1cccc(Nc2cc(Cl)nc(SCC(=O)O)n2)c1C [PIRINIXIC ACID]    22.2
COc1ccc(Cl)cc1C(=O)NCCc1ccc(S(=O)(=O)NC(=O)NC2CCCCC2)cc1 [GLYBURIDE]    21.1
Cn1cnc([N+](=O)[O-])c1Sc1ncnc2nc[nH]c12 [AZATHIOPRINE]    21.4

For the compound shown here, C=CCO [ALLYL ALCOHOL] , give the reported MCH. 21

Now this one: Cc1cnc(NC(=O)C2=C(O)c3ccccc3S(=O)(=O)N2C)s1 [MELOXICAM] 21.4

Now this one: O=P1(N(CCCl)CCCl)NCCCO1 (centres undefined) [CYCLOPHOSPHAMIDE ANHYDROUS] 21.8

Now this one: O=C1CN(/N=C/c2ccc(-c3ccc([N+](=O)[O-])cc3)o2)C(O)=N1 [DANTROLENE] 21.6

====

# Species on record: Rattus norvegicus
# runDescription: Open TG-GATES - Regimen: Single
# Assay type: toxicity, organism-based, Sprague-Dawley
# Set-up: regimen Single, gender Male, age 6 weeks
# runParameters: in vivo, po, 0 mg/kg, 9 h, tissue Plasma, route gavage, dose level Control
Answer label 0 if TBIL is under 0.1 mg/dL, and label 1 if it is 0.1 mg/dL or more.

Solved entries (count: 3):
CNCCC(Oc1ccc(C(F)(F)F)cc1)c1ccccc1.Cl (stereo not given) [FLUOXETINE HYDROCHLORIDE]    label 0
O=C1CN(/N=C/c2ccc(-c3ccc([N+](=O)[O-])cc3)o2)C(O)=N1    label 1
Cn1cnc([N+](=O)[O-])c1Sc1ncnc2nc[nH]c12    label 0

Does COc1ccc(O)c(C(C)(C)C)c1.COc1ccc(O)cc1C(C)(C)C [BUTYLATED HYDROXYANISOLE] have a reported TBIL of at least 0.1 mg/dL? label 0

====

# Organism: Rattus norvegicus
# runDescription: Open TG-GATES - Regimen: Daily Repeat
# Type: toxicity, organism-based, Sprague-Dawley
# Design: regimen Daily Repeat, gender Male, age 6 weeks
# runParameters: in vivo, po, 0 mg/kg, […], tissue Blood, route gavage, dose level Control, time 7 day
endpoint: Mono (%)
Field format: number, assumed %, no unit text.

Cn1cnc([N+](=O)[O-])c1Sc1ncnc2nc[nH]c12    2.4
C=CCO    3
COc1ccc(Cl)cc1C(=O)NCCc1ccc(S(=O)(=O)NC(=O)NC2CCCCC2)cc1 [GLYBURIDE]    2.8
Cn1c(=O)c2c(ncn2C)n(C)c1=O    1.8
O=C1NC(=O)C(c2ccccc2)(c2ccccc2)N1    2.4

For the molecule shown here, Cc1cccc(Nc2cc(Cl)nc(SCC(=O)O)n2)c1C , give the reported Mono. 2.2

====

# Organism: Rattus norvegicus
# runDescription: Open TG-GATES - Regimen: Daily Repeat
# Assay type: toxicity, organism-based, Sprague-Dawley
# Design: regimen Daily Repeat, gender Male, age 6 weeks
# runParameters: in vivo, po, 0 mg/kg, […], route gavage, dose level Control, time 28 day
# maps each entry to its TERMINAL_BW
Field format: number, assumed g, no unit text.

# annotated cases, reported TERMINAL_BW shown
Cc1cccc(Nc2cc(Cl)nc(SCC(=O)O)n2)c1C [PIRINIXIC ACID]    387.5
O=P1(N(CCCl)CCCl)NCCCO1 (stereo not given) [CYCLOPHOSPHAMIDE ANHYDROUS]    368.5
Cn1c(=O)c2c(ncn2C)n(C)c1=O [CAFFEINE]    388.1
CS(=O)(=O)Nc1ccc([N+](=O)[O-])cc1Oc1ccccc1 [NIMESULIDE]    405

# ---- query compound ----
For the compound shown here, COc1ccc(Cl)cc1C(=O)NCCc1ccc(S(=O)(=O)NC(=O)NC2CCCCC2)cc1 [GLYBURIDE] , give the reported TERMINAL_BW. 406.6

====

# Organism: Rattus norvegicus
# runDescription: Open TG-GATES - Regimen: Daily Repeat
# Type: toxicity, organism-based, Sprague-Dawley
# Design: regimen Daily Repeat, gender Male, age 6 weeks
# runParameters: in vivo, po, 0 mg/kg, 72 h, tissue Blood, route gavage, dose level Control, time 3 day
endpoint: APTT (s)
Field format: number, assumed s, no unit text.

# annotated cases, reported APTT shown
CS(=O)(=O)Nc1ccc([N+](=O)[O-])cc1Oc1ccccc1 [NIMESULIDE]    17.3
O=C1NC(=O)C(c2ccccc2)(c2ccccc2)N1    21.2
Cn1cnc([N+](=O)[O-])c1Sc1ncnc2nc[nH]c12    21.5

# ---- query compound ----
For the compound shown here, COc1ccc(O)c(C(C)(C)C)c1.COc1ccc(O)cc1C(C)(C)C [BUTYLATED HYDROXYANISOLE] , give the reported APTT. 15.7

====

# Organism: Rattus norvegicus
# runDescription: Open TG-GATES - Regimen: Daily Repeat
# Format: toxicity, organism-based, Sprague-Dawley
# Design: regimen Daily Repeat, gender Male, age 6 weeks
# runParameters: in vivo, po, 0 mg/kg, 72 h, route gavage, dose level Control, time 3 day
# maps each entry to its TERMINAL_BW
Field format: number, assumed g, no unit text.

Cn1cnc([N+](=O)[O-])c1Sc1ncnc2nc[nH]c12    200.7
O=P1(N(CCCl)CCCl)NCCCO1 (stereo unspecified) [CYCLOPHOSPHAMIDE ANHYDROUS]    215.1
O=C1CN(/N=C/c2ccc(-c3ccc([N+](=O)[O-])cc3)o2)C(O)=N1    235.4

For the molecule shown here, C=CCO , give the reported TERMINAL_BW. 237.2

Now this one: COc1ccc(O)c(C(C)(C)C)c1.COc1ccc(O)cc1C(C)(C)C [BUTYLATED HYDROXYANISOLE] 225.6

Now this one: COc1ccc(Cl)cc1C(=O)NCCc1ccc(S(=O)(=O)NC(=O)NC2CCCCC2)cc1 [GLYBURIDE] 234.5

Now this one: Cn1c(=O)c2c(ncn2C)n(C)c1=O 229.3

Now this one: O=C1NC(=O)C(c2ccccc2)(c2ccccc2)N1 217.7

====

# Organism: Rattus norvegicus
# runDescription: Open TG-GATES - Regimen: Single
# Assay type: toxicity, organism-based, Sprague-Dawley
# Parameters: regimen Single, gender Male, age 6 weeks
# runParameters: in vivo, po, 0 mg/kg, 24 h, tissue Blood, route gavage, dose level Control
endpoint: Neu

COc1ccc(Cl)cc1C(=O)NCCc1ccc(S(=O)(=O)NC(=O)NC2CCCCC2)cc1 [GLYBURIDE]    18.6%
COc1ccc(O)c(C(C)(C)C)c1.COc1ccc(O)cc1C(C)(C)C [BUTYLATED HYDROXYANISOLE]    19.1%

# ---- query molecule ----
For the molecule shown here, Cc1cccc(Nc2cc(Cl)nc(SCC(=O)O)n2)c1C , give the reported Neu. 21.8%

====

# maps each entry to its K
# Species on record: Rattus norvegicus
# runDescription: Open TG-GATES - Regimen: Daily Repeat
# Format: toxicity, organism-based, Sprague-Dawley
# Design: regimen Daily Repeat, gender Male, age 6 weeks
# runParameters: in vivo, po, 0 mg/kg, […], tissue Plasma, route gavage, dose level Control, time 7 day
Field format: number, assumed meq/L, no unit text.

COc1ccc(O)c(C(C)(C)C)c1.COc1ccc(O)cc1C(C)(C)C [BUTYLATED HYDROXYANISOLE]    4.1

For the molecule shown here, CS(=O)(=O)Nc1ccc([N+](=O)[O-])cc1Oc1ccccc1 [NIMESULIDE] , give the reported K. 5

Now this one: Cn1cnc([N+](=O)[O-])c1Sc1ncnc2nc[nH]c12 4.3

====

# Species on record: Rattus norvegicus
# runDescription: Open TG-GATES - Regimen: Daily Repeat
# Assay type: toxicity, organism-based, Sprague-Dawley
# Set-up: regimen Daily Repeat, gender Male, age 6 weeks
# runParameters: in vivo, po, 0 mg/kg, […], tissue Blood, route gavage, dose level Control, time 28 day
# maps each entry to its RBC
Field format: number, assumed x10_4/ul, no unit text.

Cn1cnc([N+](=O)[O-])c1Sc1ncnc2nc[nH]c12    784
O=C1NC(=O)C(c2ccccc2)(c2ccccc2)N1    728.8

For the compound shown here, Cc1cnc(NC(=O)C2=C(O)c3ccccc3S(=O)(=O)N2C)s1 , give the reported RBC. 768.2

Now this one: C=CCO 801.6

Now this one: O=P1(N(CCCl)CCCl)NCCCO1 (stereo unspecified) [CYCLOPHOSPHAMIDE ANHYDROUS] 769.8

Now this one: CS(=O)(=O)Nc1ccc([N+](=O)[O-])cc1Oc1ccccc1 [NIMESULIDE] 761
